- test-protocol: NCI Yeast Anticancer Drug Screen. Data for the sgs1 mgt1 strain (AID 161);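 note: 0% = growth of cultures given vehicle only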
- condition-context: S. cerevisiae sgs1 mgt1 strain, at 50.0 µM, active compounds read high
- Description: Growth inhibition of yeast strains with defined genetic alterations is measured as a screen for potential anti-cancer activity. Selected strains with alterations in DNA damage repair or cell cycle control were exposed to compounds and growth inhibition was measured relative to vehicle treated controls. The strain used in this assay is sgs1 mgt1
Compounds without any hit were thinned out: in the full panel of roughly 79,000, 15% have a hit.
Entries annotated with measured growth inhibition
State the answer as a number, implicitly in %.

Recorded results for 3 compounds are shown here.
INSERT INTO results (compound, measure_unit, recorded_value) VALUES
  ('C=Cc1c(C)c(C)c(C=C)c(C)c1C', '%', -8.2),
  ('O=C(O)C(=Cc1ccnc2ccccc12)C(=O)O', '%', -35.8),
  ('O=C(O)c1c(Br)c(Br)c(Br)c(Br)c1C(=O)Nc1ccc(Br)cc1', '%', 5.8);

get_value(item= CC(C(=O)c1ccccc1)C(=O)c1ccccc1 , readout=growth inhibition) returns -7.9

get_value(item= CCC(C(=O)O)C(C)(C)O (configuration not stated) , readout=growth inhibition) returns -7.95

get_value(item= CCSC(C(O)C(O)C(O)C(O)CO)n1cnc2c(SC)ncnc21 (configuration not stated) , readout=growth inhibition) returns 1.05

get_value(item= COc1cc(C=Nc2ccc(C)c(Cl)c2)ccc1OC(=O)c1ccccc1 , readout=growth inhibition) returns -8.3

Source listed as PubChem BioAssay (NCI).
